protocolDetails: Stability in rat microsomes assessed as parent compound remaining after 30 mins
Type: ADME, Microsome
testParameters: read-out: Stability
experimentalEndpoint: remaining at 0.5 h (%)
One number for each entry, in %.

**Query** Supply remaining at 0.5 h value. Item: Clc1ccc(C2(c3nnc4c(C5CC5)cccn34)CC2)cc1
**Result** 100

====

protocolDetails: Cmax in Balb/C mouse at 3.5 mg/kg, po
Format: ADME, organism-based
Parameters: dose 3.5 mg/kg, route oral
testParameters: in vivo
experimentalEndpoint: Cmax (nM)
Give bare numbers, in nM.

**Query** Supply Cmax value. Item: Clc1ccc(C2(c3nnc4c(C5CC5)cccn34)CC2)cc1
**Result** 2500
